# TGT: T1, His tagged full length TRIP8b (1b-2) isoform
# T1 chain: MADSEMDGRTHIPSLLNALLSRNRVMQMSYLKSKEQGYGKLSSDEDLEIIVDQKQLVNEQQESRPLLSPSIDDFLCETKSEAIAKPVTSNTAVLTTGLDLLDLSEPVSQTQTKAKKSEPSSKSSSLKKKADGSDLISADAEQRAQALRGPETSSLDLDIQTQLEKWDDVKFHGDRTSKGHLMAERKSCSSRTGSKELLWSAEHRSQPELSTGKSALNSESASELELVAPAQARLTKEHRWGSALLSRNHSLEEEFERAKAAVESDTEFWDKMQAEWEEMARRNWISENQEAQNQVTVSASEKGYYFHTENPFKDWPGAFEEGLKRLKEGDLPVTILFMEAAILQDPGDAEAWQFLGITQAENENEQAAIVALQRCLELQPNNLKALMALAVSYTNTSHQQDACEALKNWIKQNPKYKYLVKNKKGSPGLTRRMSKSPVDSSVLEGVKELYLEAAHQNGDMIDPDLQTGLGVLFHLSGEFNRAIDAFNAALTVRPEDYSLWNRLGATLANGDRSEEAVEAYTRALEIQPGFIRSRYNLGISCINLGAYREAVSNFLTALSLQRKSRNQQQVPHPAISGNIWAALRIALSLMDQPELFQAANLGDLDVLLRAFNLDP
# ASSAY: fluorescence polarisation
pKd: −log10 of the molar value. Ends that are not written are not given here.
MEASUREMENT_KIND: pKd

[[record]]
binder = "DAEKPRFASNL (also: FITC label, position not given here) [FITC labeled HCN1 peptide (C-terminal 11 amino acids of HCN1)]"
reported_value = 5.99


Numbers sourced from paper PMC4755285.
